Data provenance is the RNAGym collection of RNA variant scans (doi:10.1073/pnas.2313332121).

B1: TPR t1 (parent)
chain: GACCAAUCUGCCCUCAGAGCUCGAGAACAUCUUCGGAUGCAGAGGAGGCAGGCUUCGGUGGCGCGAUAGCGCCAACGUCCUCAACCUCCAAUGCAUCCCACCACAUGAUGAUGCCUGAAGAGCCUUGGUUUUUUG

Variants of: B1
test-method-notes: polymerase ribozyme fitness, log enrichment relative to wild type (log ratio); higher = more active; in vitro selection for triplet polymerase activity
Assignment: determine reported polymerase ribozyme fitness (log ratio) for the given variants.
Numbers only.

Your task in this section: give polymerase ribozyme fitness (log ratio) for each listed record.
1. C12U C73A
2. C85U G135U
3. C40G A46U C56A U92A C114U

stdout:
0.441
-1.91
-6.09

Your task in this section: give polymerase ribozyme fitness (log ratio) for each listed record.
1. U14A C22A C101A U116G C124U
2. C28G G48U U92G C124A
3. G19A C70A C94U
4. C89U C123A
5. U7A C40G
6. C4U A6G G39A C72A C85A A90G C114U
7. A43C C62U A84G

stdout:
1. -5.17
2. -5.41
3. -5.61
4. 0.125
5. -0.25
6. -3.29
7. -5.86

Your task in this section: give polymerase ribozyme fitness (log ratio) for each listed record.
1. A41U C64U U87C U106C C123A
2. U55A C85A U112G
3. C53A G69U G120C
4. G63A U78C A84C U96G U116G
5. C72G C86G A121U U125A G135U
6. G39A C124U
7. G48A U54G C85U

stdout:
[-1.38, -2.37, 1.96, -4.46, -2.76, 1.26, -0.681]

Your task in this section: give polymerase ribozyme fitness (log ratio) for each listed record.
1. A46C U87A C123U U132A
2. C49U G60C A103C U112A C123G
3. U9C U81A U116A G122U C124U
4. G17U A18C G57C
5. U9G A103U U126A G127C

stdout:
1: 1.86; 2: -4.76; 3: -0.783; 4: -2.66; 5: -5.16
